# System: MOLM14;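 also: after 48 h exposure read by CellTiter-Glo luminescence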
# MEASUREMENT_PROTOCOL: cell viability relative to vehicle control; higher = less cytotoxic
# PARTICULARS: 10 µM; SRSF2 genotype: SRSF2 wt/wt
Each entry below carries its recorded cell viability.
Response body: numeric value in %, unit text excluded.

{"columns": ["COMPOUND", "UNIT_SPEC", "cell viability"],
 "data": [
  ["COC(=O)N[C@H](C(=O)N1CCC[C@H]1c1ncc(-c2ccc(-c3ccc(-c4cnc([C@@H]5CCCN5C(=O)[C@@H](NC(=O)OC)C(C)C)[nH]4)cc3)cc2)[nH]1)C(C)C", "%", 88.5],
  ["Cc1nc2ccc(NC(=O)Nc3ccnc4cccnc34)cc2o1", "%", 107],
  ["CCOC(=O)N1CCC(CN(Cc2ccc(Cl)cc2)Cc2ccc([N+](=O)[O-])s2)C1 (stereo not given) [Stenabolic (SR9009)]", "%", 41.9],
  ["COc1cc(C(=O)NS(=O)(=O)c2ccccc2C)ccc1Cc1cn(C)c2ccc(NC(=O)OC3CCCC3)cc12 [Zafirlukast (Accolate)]", "%", 97]
]}

Request: Fill in: cell viability of OC[C@H]1O[C@@](CO)(O[C@H]2O[C@H](CO)[C@@H](O)[C@H](O)[C@H]2O)[C@@H](O[C@H]2O[C@H](CO)[C@@H](O)[C@H](O)[C@H]2O)[C@@H]1O [D-(+)-Melezitose] is ___
Response: 107

Data origin, for the record: the supplement of paper PMC10981050
